Reference for the values: patent US9643930B2

assay.target: human MAO-A (Homo sapiens, UniProt P21397)
Sequence (P21397 whole entry): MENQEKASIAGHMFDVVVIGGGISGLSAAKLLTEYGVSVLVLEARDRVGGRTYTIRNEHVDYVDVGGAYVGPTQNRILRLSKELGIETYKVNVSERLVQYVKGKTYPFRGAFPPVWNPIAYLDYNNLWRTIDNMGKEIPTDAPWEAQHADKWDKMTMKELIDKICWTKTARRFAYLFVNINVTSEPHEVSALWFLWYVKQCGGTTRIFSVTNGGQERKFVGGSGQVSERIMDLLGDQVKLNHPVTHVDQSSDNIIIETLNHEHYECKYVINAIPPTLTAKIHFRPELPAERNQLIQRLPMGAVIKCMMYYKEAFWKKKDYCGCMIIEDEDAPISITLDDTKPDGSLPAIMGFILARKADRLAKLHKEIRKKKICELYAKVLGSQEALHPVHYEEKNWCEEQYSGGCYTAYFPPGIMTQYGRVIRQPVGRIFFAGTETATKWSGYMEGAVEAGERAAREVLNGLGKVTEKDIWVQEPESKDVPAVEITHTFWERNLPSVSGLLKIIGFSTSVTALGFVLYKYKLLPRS
test.method.notes: Human MAO-A assay (recombinant enzyme, Amplex Red fluorescence)
experimental.conditions: read-out: human MAO-A % inhibition at 10 μM
# inhibition at 10 µM per entry
measure.name: inhibition at 10 µM (%)

[[record]]
given_smiles = "Fc1ccc(/N=C/c2ccc3[nH]ncc3c2)cc1Cl"
recorded_value = 54

[[record]]
given_smiles = "O=C(Nc1ccc(Cl)c(Cl)c1)c1ccc2[nH]ncc2c1"
recorded_value = 46

[[record]]
given_smiles = "O=C(Nc1ccc(Cl)c(O)c1)c1ccc2[nH]ncc2c1"
recorded_value = 81

[[record]]
given_smiles = "Fc1cc(/N=C/c2ccc3[nH]ncc3c2)ccc1Cl"
recorded_value = 44

[[record]]
given_smiles = "Cn1ncc2cc(C(=O)Nc3ccc(F)c(F)c3)ccc21"
recorded_value = 46

[[record]]
given_smiles = "COc1ccc(NC(=O)c2ccc3[nH]ncc3c2)cc1OC"
recorded_value = 9

[[record]]
given_smiles = "COc1ccc(NC(=O)c2ccc3[nH]ncc3c2)cc1Cl"
recorded_value = 30

[[record]]
given_smiles = "O=C(Nc1ccc(Cl)c(F)c1)c1ccc2[nH]ncc2c1"
recorded_value = 55

[[record]]
given_smiles = "O=C(Nc1ccc(F)c(F)c1)c1ccc2[nH]ncc2c1"
recorded_value = 36

[[record]]
given_smiles = "Cn1ncc2cc(/C=N/c3ccc(Cl)c(Cl)c3)ccc21"
recorded_value = 57

[[record]]
given_smiles = "Cn1ccc2cc(C(=O)Nc3ccc(Cl)c(Cl)c3)ccc21"
recorded_value = 13

[[record]]
given_smiles = "COCCn1ncc2cc(C(=O)Nc3ccc(Cl)c(Cl)c3)ccc21"
recorded_value = 81

[[record]]
given_smiles = "O=C(Nc1ccc(F)c(Cl)c1)c1ccc2[nH]ncc2c1"
recorded_value = 40

[[record]]
given_smiles = "O=C(Nc1cnc(Cl)c(Cl)c1)c1ccc2[nH]ncc2c1"
recorded_value = 52

[[record]]
given_smiles = "O=C(Nc1ccc(O)c(Cl)c1)c1ccc2[nH]ncc2c1"
recorded_value = 33

[[record]]
given_smiles = "Cn1ncc2cc(C(=O)Nc3ccc(Cl)c(Cl)c3)ccc21"
recorded_value = 37

[[record]]
given_smiles = "COc1cc(NC(=O)c2ccc3[nH]ncc3c2)ccc1Cl"
recorded_value = 62

[[record]]
given_smiles = "Clc1cc(/N=C/c2ccc3[nH]ncc3c2)cnc1Cl"
recorded_value = 67

[[record]]
given_smiles = "Cn1cc2cc(C(=O)Nc3ccc(F)c(Cl)c3)ccc2n1"
recorded_value = 95

[[record]]
given_smiles = "O=C(Nc1ccc(Cl)c(Cl)c1)c1ccc2[nH]ccc2c1"
recorded_value = 88

[[record]]
given_smiles = "Clc1ccc(/N=C/c2ccc3[nH]ncc3c2)cc1Cl"
recorded_value = 62

[[record]]
given_smiles = "O=C(Nc1cc(Cl)cc(Cl)c1)c1ccc2[nH]ncc2c1"
recorded_value = 65

